Below, each entry is listed alongside its reported Total Cell Count.
# Test system: U2OS
# assay procedure: Multiplex assay against U2OS
# Type: toxicity, cell-based
# run conditions: human, 12 h, 1 µM, compound concentration 1 uM, replicate 1

smiles representation: CCCn1c(=O)c2[nH]c(C34CC5CC(CC3C5)C4)nc2n(CCC)c1=O
Total Cell Count: 123
--
smiles representation: Cc1cc2c(cc1N1C(=O)c3cccc4c(CCCO)ccc(c34)C1=O)n(C)c(=O)n2C
Total Cell Count: 179
--
smiles representation: CC(C)N1CCC(C)(C)c2cc(C#Cc3ccc(C(=O)O)cc3)ccc21
Total Cell Count: 125
--
smiles representation: c1ccc2oc(-c3csc(C4CCN(Cc5nc6ncccc6[nH]5)CC4)n3)cc2c1
Total Cell Count: 182
--
smiles representation: Cc1cn(-c2cc(NC(=O)c3ccc4c(c3)CN(c3cncnc3)C[C@@H]4C)cc(C(F)(F)F)c2)cn1
Total Cell Count: 149
--
smiles representation: COc1ccc(NS(=O)(=O)c2sc3ccc(Cl)cc3c2C)cc1N1CCNCC1.Cl
Total Cell Count: 172
--
smiles representation: CNc1oc(-c2cccc3ccccc23)nc1C#N
Total Cell Count: 113
--
smiles representation: CCOc1cc2ncc(C#N)c(Nc3ccc(OCc4cccc(F)c4)c(Cl)c3)c2cc1NC(=O)/C=C/CN(C)C
Total Cell Count: 156
--
smiles representation: CCc1cc2c(cc1CC)CC(NC[C@H](O)c1ccc(O)c3[nH]c(=O)ccc13)C2
Total Cell Count: 185

----------
# Tested on: HEK-293T
# assay procedure: Multiplex assay against HEK293T
# Type: toxicity, cell-based
# run conditions: human, 12 h, 1 µM, compound concentration 1 uM, replicate 1
Below, each entry is listed alongside its reported Population Apoptotic (%).

compound: Cl.Cl.Nc1ncnc2c1c(-c1cccc(OCc3ccccc3)c1)cn2[C@H]1C[C@@H](CN2CCC2)C1
tested on: HEK-293T
Population Apoptotic (%): 69

compound: N#Cc1cnc(Nc2cc(NC[C@H]3CNCCO3)c(C(F)(F)F)cn2)cn1
tested on: HEK-293T
Population Apoptotic (%): 16

compound: CNC(=O)c1cc(Oc2ccc(NC(=O)Nc3cc(C(C)(C)C)nn3-c3ccc4ncccc4c3)c(F)c2)ccn1
tested on: HEK-293T
Population Apoptotic (%): 22

compound: Nc1ccc(C(=O)Nc2cccc(-c3nc(N4CCOCC4)c4oc5ncccc5c4n3)c2)cn1
tested on: HEK-293T
Population Apoptotic (%): 66

compound: CN(C)CCOc1ccc(-c2nc(-c3ccncc3)c(-c3ccc4c(c3)CC/C4=N\O)[nH]2)cc1
tested on: HEK-293T
Population Apoptotic (%): 25

compound: c1ccc2oc(-c3csc(C4CCN(Cc5nc6ncccc6[nH]5)CC4)n3)cc2c1
tested on: HEK-293T
Population Apoptotic (%): 23

compound: CCn1c(-c2nonc2N)nc2cnc(Oc3cccc(NC(=O)c4ccc(OCCN5CCOCC5)cc4)c3)cc21 [GSK-269962A]
tested on: HEK-293T
Population Apoptotic (%): 44

compound: CC(C)N1CCC(C)(C)c2cc(C#Cc3ccc(C(=O)O)cc3)ccc21
tested on: HEK-293T
Population Apoptotic (%): 60

compound: COc1ccc(NS(=O)(=O)c2sc3ccc(Cl)cc3c2C)cc1N1CCNCC1.Cl
tested on: HEK-293T
Population Apoptotic (%): 40

compound: CCc1cc2c(cc1CC)CC(NC[C@H](O)c1ccc(O)c3[nH]c(=O)ccc13)C2
tested on: HEK-293T
Population Apoptotic (%): 48

compound: CCCn1c(=O)c2[nH]c(C34CC5CC(CC3C5)C4)nc2n(CCC)c1=O
tested on: HEK-293T
Population Apoptotic (%): 63

compound: CCC(=O)O[C@]1(C(=O)SCF)[C@H](C)C[C@H]2[C@@H]3C[C@H](F)C4=CC(=O)C=C[C@]4(C)[C@@]3(F)[C@@H](O)C[C@@]21C [FLUTICASONE PROPIONATE]
tested on: HEK-293T
Population Apoptotic (%): 51

compound: CC(C)(C)c1cnc(CSc2cnc(NC(=O)C3CCNCC3)s2)o1
tested on: HEK-293T
Population Apoptotic (%): 25

----------
# Test system: Fibroblast
# assay procedure: Multiplex assay against human fibroblast
# Format: toxicity, cell-based
# run conditions: 12 h, 10 µM, compound concentration 10 uM, replicate 1

molecule: CN(C)C/C=C/C(=O)Nc1cc2c(Nc3ccc(F)c(Cl)c3)ncnc2cc1O[C@H]1CCOC1.O=C(O)/C=C\C(=O)O.O=C(O)/C=C\C(=O)O [AFATINIB DIMALEATE]
Total Cell Count: 247

molecule: N#Cc1cnc(Nc2cc(NC[C@H]3CNCCO3)c(C(F)(F)F)cn2)cn1
Total Cell Count: 288

molecule: CC(C)N1CCC(C)(C)c2cc(C#Cc3ccc(C(=O)O)cc3)ccc21
Total Cell Count: 898

molecule: CCOc1cc2ncc(C#N)c(Nc3ccc(OCc4cccc(F)c4)c(Cl)c3)c2cc1NC(=O)/C=C/CN(C)C
Total Cell Count: 368

molecule: Nc1ccc(C(=O)Nc2cccc(-c3nc(N4CCOCC4)c4oc5ncccc5c4n3)c2)cn1
Total Cell Count: 554

molecule: Cl.Cl.Nc1ncnc2c1c(-c1cccc(OCc3ccccc3)c1)cn2[C@H]1C[C@@H](CN2CCC2)C1
Total Cell Count: 222

molecule: CNC(=O)c1cc(Oc2ccc(NC(=O)Nc3cc(C(C)(C)C)nn3-c3ccc4ncccc4c3)c(F)c2)ccn1
Total Cell Count: 238

molecule: COc1ccc(NS(=O)(=O)c2sc3ccc(Cl)cc3c2C)cc1N1CCNCC1.Cl
Total Cell Count: 217

molecule: O=C(O)c1ccc2cc(-c3ccc(O)c(C45CC6CC(CC(C6)C4)C5)c3)ccc2c1
Total Cell Count: 115

molecule: Cl.Cl.NC1(c2ccc(-c3nc4ccn5c(=O)[nH]nc5c4cc3-c3ccccc3)cc2)CCC1
Total Cell Count: 610

molecule: Cc1cn(-c2cc(NC(=O)c3ccc4c(c3)CN(c3cncnc3)C[C@@H]4C)cc(C(F)(F)F)c2)cn1
Total Cell Count: 141

molecule: CC(=O)c1cc(-c2cc(C(=O)NC3CC3)ccc2C)c2ncccn12
Total Cell Count: 140

molecule: Cc1cc2c(cc1N1C(=O)c3cccc4c(CCCO)ccc(c34)C1=O)n(C)c(=O)n2C
Total Cell Count: 126

molecule: COc1cc2c(NC3CCN(C(C)C)CC3)nc(N3CCC(F)(F)CC3)nc2cc1OCCCN1CCCC1
Total Cell Count: 239

molecule: Cc1nc(Cc2cccc(C(F)(F)F)c2)sc1-c1ccc(C(N)=O)nc1 [TP-024n]
Total Cell Count: 150

----------
Below, each entry is listed alongside its reported Growth Rate.
# Test system: HEK-293T
# assay procedure: Incucyte cell viability with HEK293T; also: filed as whole numbers so only -1 and 0 and 1 occur
# Type: toxicity, cell-based
# run conditions: human, 0 h, 10 µM, compound concentration 10 uM, replicate number 1, timepoint 0 hours
readout: Growth Rate

compound: Clc1cc2c(NC3CCCC3)nnc(-c3ccncc3)c2cc1Cl
tested on: HEK-293T
test result: 1
--
compound: CCCOc1ccc([C@@H]2[C@@H](C(=O)O)[C@H](c3ccc4c(c3)OCO4)CN2CC(=O)Nc2c(CC)cccc2CC)cc1 [A-1806262]
tested on: HEK-293T
test result: 0
--
compound: CCOC(=O)c1cc(C#N)c(N2CCC(C(=O)NS(=O)(=O)Cc3ccccc3)CC2)nc1C
tested on: HEK-293T
test result: 1
--
compound: C[C@H]1CCCN1Cc1nc2cc(NC(=O)c3ccc4cnccc4c3)ccc2[nH]1
tested on: HEK-293T
test result: 1
--
compound: NS(=O)(=O)c1cc(NC(=O)C2(c3ccccc3Cl)CC2)ccc1Oc1cccc(Cl)c1 [BAY-207]
tested on: HEK-293T
test result: 0

----------
# System: U2OS
# assay procedure: Multiplex assay against U2OS
# Format: toxicity, cell-based
# run conditions: human, 12 h, 1 µM, compound concentration 1 uM, replicate 1

compound: CCC(=O)O[C@]1(C(=O)SCF)[C@H](C)C[C@H]2[C@@H]3C[C@H](F)C4=CC(=O)C=C[C@]4(C)[C@@]3(F)[C@@H](O)C[C@@]21C [FLUTICASONE PROPIONATE]
Population Normal (%): 94

compound: COc1ccc(NS(=O)(=O)c2sc3ccc(Cl)cc3c2C)cc1N1CCNCC1.Cl
Population Normal (%): 93

compound: N#Cc1cnc(Nc2cc(NC[C@H]3CNCCO3)c(C(F)(F)F)cn2)cn1
Population Normal (%): 93

----------
# Test system: HEK-293T
# assay procedure: Multiplex assay against HEK293T
# Type: toxicity, cell-based
# run conditions: human, 48 h, 10 µM, compound concentration 10 uM, replicate 2
Below, each entry is listed alongside its reported Population Fragmented Nuclei (%).
readout: Population Fragmented Nuclei (%)

compound: CNc1oc(-c2cccc3ccccc23)nc1C#N
readout: Population Fragmented Nuclei (%)
test result: 84

compound: CC(C)N1CCC(C)(C)c2cc(C#Cc3ccc(C(=O)O)cc3)ccc21
readout: Population Fragmented Nuclei (%)
test result: 23

compound: Cc1cc2c(cc1N1C(=O)c3cccc4c(CCCO)ccc(c34)C1=O)n(C)c(=O)n2C
readout: Population Fragmented Nuclei (%)
test result: 15

compound: CC(=O)c1cc(-c2cc(C(=O)NC3CC3)ccc2C)c2ncccn12
readout: Population Fragmented Nuclei (%)
test result: 6

compound: Nc1ccc(C(=O)Nc2cccc(-c3nc(N4CCOCC4)c4oc5ncccc5c4n3)c2)cn1
readout: Population Fragmented Nuclei (%)
test result: 17

compound: O=C(O)c1ccc2cc(-c3ccc(O)c(C45CC6CC(CC(C6)C4)C5)c3)ccc2c1 [O-DEMETHYLATED ADAPALENE]
readout: Population Fragmented Nuclei (%)
test result: 12

compound: C1=N/C2=N/c3ccc(OCCN4CCCC4)c(c3)COC/C=C\COCc3cccc(c3)C(=C1)N2
readout: Population Fragmented Nuclei (%)
test result: 17

compound: CCCn1c(=O)c2[nH]c(C34CC5CC(CC3C5)C4)nc2n(CCC)c1=O [ROLOFYLLINE]
readout: Population Fragmented Nuclei (%)
test result: 11

compound: CCn1c(-c2nonc2N)nc2cnc(Oc3cccc(NC(=O)c4ccc(OCCN5CCOCC5)cc4)c3)cc21 [GSK-269962A]
readout: Population Fragmented Nuclei (%)
test result: 5

compound: CC(C)Oc1ccc(C(=O)N[C@H](CNC(=O)CN(C)C)Cc2ccc(-c3cn4cccc([C@H](C)O)c4n3)cc2)cc1Cl [GSK-923295A]
readout: Population Fragmented Nuclei (%)
test result: 10

compound: Cl.Cl.Nc1ncnc2c1c(-c1cccc(OCc3ccccc3)c1)cn2[C@H]1C[C@@H](CN2CCC2)C1
readout: Population Fragmented Nuclei (%)
test result: 34

compound: CCc1cc2c(cc1CC)CC(NC[C@H](O)c1ccc(O)c3[nH]c(=O)ccc13)C2 [INDACATEROL]
readout: Population Fragmented Nuclei (%)
test result: 9

compound: COc1cc2c(NC3CCN(C(C)C)CC3)nc(N3CCC(F)(F)CC3)nc2cc1OCCCN1CCCC1
readout: Population Fragmented Nuclei (%)
test result: 8

compound: COc1ccc(NS(=O)(=O)c2sc3ccc(Cl)cc3c2C)cc1N1CCNCC1.Cl
readout: Population Fragmented Nuclei (%)
test result: 4

compound: Cc1nc(Cc2cccc(C(F)(F)F)c2)sc1-c1ccc(C(N)=O)nc1 [TP-024n]
readout: Population Fragmented Nuclei (%)
test result: 10

compound: Nc1nc2c(c(N3CCNCC3)n1)CCC1=C2[C@@H]2CCCC[C@@H]2O1
readout: Population Fragmented Nuclei (%)
test result: 7

compound: COc1cc(N2CCC(N(C)C)CC2)ccc1Nc1ncc(Cl)c(Nc2ccccc2P(C)(C)=O)n1
readout: Population Fragmented Nuclei (%)
test result: 8

compound: CCC(=O)O[C@]1(C(=O)SCF)[C@H](C)C[C@H]2[C@@H]3C[C@H](F)C4=CC(=O)C=C[C@]4(C)[C@@]3(F)[C@@H](O)C[C@@]21C [FLUTICASONE PROPIONATE]
readout: Population Fragmented Nuclei (%)
test result: 7

From: ChEMBL document CHEMBL4689842
